Consider the following binders and their measured IC50 readings.
- STUDY SYSTEM: T1, CD3 expressed on cell-surface of primary human T cells (human, UniProt P07766 23-207; P04234 22-171)
- T1 construct: also called cell-surface CD3; human CD3
- T1 sequence (P07766 23-207 limits assumed, chain 1 of 2): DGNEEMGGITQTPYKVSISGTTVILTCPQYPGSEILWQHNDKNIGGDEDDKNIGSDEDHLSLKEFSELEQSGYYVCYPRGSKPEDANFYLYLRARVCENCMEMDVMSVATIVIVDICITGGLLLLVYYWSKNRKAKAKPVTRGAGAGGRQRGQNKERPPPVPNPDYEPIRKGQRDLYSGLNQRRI
- T1 sequence (P04234 22-171 limits assumed, chain 2 of 2): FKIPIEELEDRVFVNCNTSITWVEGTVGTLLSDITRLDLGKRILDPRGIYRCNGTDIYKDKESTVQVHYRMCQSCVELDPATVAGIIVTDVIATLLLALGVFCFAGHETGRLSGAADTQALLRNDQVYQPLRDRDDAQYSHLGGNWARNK
- EXPERIMENT NOTES: flow cytometry competition vs murine SP34-AF488 on human T cells, n = 1
The reply should read as a number followed by its unit.

Below: 2 binders and their reported IC50.
{"BINDER": "huSP34.3.8 Fab-HF (Fab, V domains shown) VH: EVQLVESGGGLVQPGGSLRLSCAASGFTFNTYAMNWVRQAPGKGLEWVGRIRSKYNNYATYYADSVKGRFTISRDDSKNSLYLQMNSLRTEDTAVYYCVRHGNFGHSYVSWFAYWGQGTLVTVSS VL: QAVVTQEPSLTVSPGGTVTLTCGSSTGAVTTGHYANWVQQKPGQAPRGLIGGTNKRAPGVPARFSGSLLGGKAALTISGAQPEDEAEYYCALWYSNRWVFGGGTKLTVL", "RESULT": "0.2 µg/mL"}
{"BINDER": "huSP34.12.8 Fab-HF (Fab, V domains shown) VH: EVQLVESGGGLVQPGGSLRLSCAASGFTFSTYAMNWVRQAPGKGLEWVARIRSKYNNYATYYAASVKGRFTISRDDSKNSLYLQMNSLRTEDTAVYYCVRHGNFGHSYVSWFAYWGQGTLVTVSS VL: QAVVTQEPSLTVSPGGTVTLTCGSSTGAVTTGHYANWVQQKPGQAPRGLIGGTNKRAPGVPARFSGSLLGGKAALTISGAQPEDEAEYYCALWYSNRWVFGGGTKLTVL", "RESULT": "0.57 µg/mL"}

Turning now to a further record.
### Prompt Note IC50 for the binder shown: huSP34.3.10 Fab-HF (Fab, V domains shown) VH: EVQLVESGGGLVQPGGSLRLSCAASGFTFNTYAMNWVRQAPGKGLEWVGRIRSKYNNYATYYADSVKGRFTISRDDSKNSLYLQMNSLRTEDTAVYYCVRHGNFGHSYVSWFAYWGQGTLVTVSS VL: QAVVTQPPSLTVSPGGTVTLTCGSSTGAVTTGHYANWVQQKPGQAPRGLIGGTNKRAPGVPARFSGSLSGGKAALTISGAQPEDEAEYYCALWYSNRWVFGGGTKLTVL
### Response 0.2 µg/mL

Source: patent US20230056252A1
